- protocol text: Kinetic aqueous solubility
- Type: physicochemical
- reported conditions: Milli-Q water, 25 °C, kinetic from dmso stock; log of kinetic water solubility; read-out: LogS (converted)
- Experimental: For the quantitative analysis, a UV/LC-MS system was used. […] UV detection was monitored at 254 nm. […] DMSO-stock compounds’ solutions were diluted with Mill-Q H2O to a final concentration of 200 μM. […] The suspensions were filtered using a 0.45 µm nylon filter (Acrodisc, VWR, Radnor, PE, USA), and the amount of solubilized compound was determined with the HPLC-UV-MS method reported above. […] The limit of detection (LOD) was quantified at 0.1 µg/mL.
outcome measure: solubility at 3 h
Answer by giving the amount and then stating its unit.

-- ask Form field: reported solubility at 3 h of Cc1cccc(/C=N/Nc2cc(Nc3ccc(F)cc3)nc(N3CCOCC3)c2)c1 [Compound 38b]
-- reply 1.35 µM
